System: early erythroid cells (Eryth I)
Protocol summary: MLTA, ErythI: concentration-response and QSP model fit
Assay type: cell-based, human
Measurement conditions: Homo sapiens, 144 h; dose 500 nM, 6 days, normalized to vehicle control; read-out: ErythI normalized cell count
Measurement label: activity at 0.5 µM (%)

CCN1CCN(Cc2ccc(Nc3ncc(F)c(-c4cc(F)c5nc(C)n(C(C)C)c5c4)n3)nc2)CC1 [abemaciclib] | 4.76
CC(=O)O[C@@]12CO[C@@H]1C[C@H](O)[C@@]1(C)C(=O)[C@H](O)C3=C(C)[C@@H](OC(=O)[C@H](O)[C@@H](NC(=O)OC(C)(C)C)c4ccccc4)C[C@@](O)([C@@H](OC(=O)c4ccccc4)[C@H]21)C3(C)C [docetaxel] | 0.687
CC(=O)c1c(C)c2cnc(Nc3ccc(N4CCNCC4)cn3)nc2n(C2CCCC2)c1=O [palbociclib] | 9.41
CC(=O)O[C@H]1C(=O)[C@@]2(C)[C@H]([C@H](OC(=O)c3ccccc3)[C@]3(O)C[C@H](OC(=O)[C@H](O)[C@@H](NC(=O)c4ccccc4)c4ccccc4)C(C)=C1C3(C)C)[C@]1(OC(C)=O)CO[C@@H]1C[C@@H]2O [paclitaxel] | 0.574
